system: human breast cancer cell line (MCF7); test: cells; format: cell-based; settings: MCF7, 72 h, read-out: IC50, anti-proliferative activity
measured_endpoint: IC50 (µM)
A number alone suffices; assume µM.

Req: Please give the measured IC50 for this compound: O=c1c2ccccc2nc2n1CCC2 [Compound 3, Deoxyvasicinone]
Resp: 7.21

----------
# key: entry, value: Kd
Biological target: α-Mannosidase (α-Man) (Canavalia ensiformis)
Sequence (C0HJB3 1-562 limits assumed): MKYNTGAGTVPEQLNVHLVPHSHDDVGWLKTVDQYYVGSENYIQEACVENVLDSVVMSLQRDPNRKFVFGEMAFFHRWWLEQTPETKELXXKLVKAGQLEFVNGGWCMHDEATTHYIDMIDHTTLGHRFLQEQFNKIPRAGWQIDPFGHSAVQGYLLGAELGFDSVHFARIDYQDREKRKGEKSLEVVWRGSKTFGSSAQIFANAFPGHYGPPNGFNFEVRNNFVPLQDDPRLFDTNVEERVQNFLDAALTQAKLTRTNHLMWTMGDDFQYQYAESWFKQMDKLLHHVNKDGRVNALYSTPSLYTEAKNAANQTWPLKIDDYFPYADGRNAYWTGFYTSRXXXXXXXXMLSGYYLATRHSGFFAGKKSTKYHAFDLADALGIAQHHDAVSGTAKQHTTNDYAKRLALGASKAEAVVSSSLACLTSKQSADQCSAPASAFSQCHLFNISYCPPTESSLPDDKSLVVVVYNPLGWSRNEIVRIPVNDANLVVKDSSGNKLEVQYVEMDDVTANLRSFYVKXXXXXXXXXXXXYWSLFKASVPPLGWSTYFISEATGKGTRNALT
Sequence (C0HJB3 563-981 partner limits assumed): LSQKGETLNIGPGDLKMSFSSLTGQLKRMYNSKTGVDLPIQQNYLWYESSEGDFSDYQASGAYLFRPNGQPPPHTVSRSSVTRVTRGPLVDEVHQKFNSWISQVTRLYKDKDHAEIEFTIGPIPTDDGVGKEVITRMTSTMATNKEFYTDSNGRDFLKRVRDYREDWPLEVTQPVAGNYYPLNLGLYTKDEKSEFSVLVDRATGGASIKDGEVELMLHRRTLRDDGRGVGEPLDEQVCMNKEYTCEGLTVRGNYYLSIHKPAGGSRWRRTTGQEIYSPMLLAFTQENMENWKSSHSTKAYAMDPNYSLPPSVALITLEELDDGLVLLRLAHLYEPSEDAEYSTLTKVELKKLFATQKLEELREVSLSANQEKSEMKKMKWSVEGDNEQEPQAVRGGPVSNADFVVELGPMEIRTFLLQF
Assay: SPR interaction analysis between compounds and immobilised α-Man
Conditions: KD (equilibrium dissociation constant), kinetic analysis, SPR, 25 °C, 1:1 Langmuir binding model
A number alone suffices; assume µM.

| molecule | unit | Kd |
| --- | --- | --- |
| COc1cc(C=O)cc(OC)c1O [Compound 2, 3,5-Dimethoxy-4-hydroxy-benzaldehyde] | µM | 347 |
| O=c1c2ccccc2nc2n1CCC2 | µM | 47.3 |

Now look at this one.
Req: Please give the measured Kd for this molecule: O=Cc1ccc(O)cc1 [Compound 1, p-Hydroxybenzaldehyde]
Resp: 1370
